# experimentNotes: NCI Yeast Anticancer Drug Screen. Data for the CLN2oe strain (AID 163);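 also: 0% = growth of vehicle-only control cultures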
# statedConditions: S. cerevisiae CLN2oe strain, at 100.0 µM
This is part of a sample that, as a whole, favours compounds with a hit. Of some 79,000 tested, about 15% had one in any assay. The source made the active and inactive calls. Rule as the data show it: active = growth inhibition above about 70%; inactive = the rest.
Use one of these outcomes when replying: active, inactive

The following molecules have reported results that may help.
molecule: C[N+](CCCl)(CCCl)Cc1cccc2cccc([N+](=O)[O-])c12
className: inactive
//
molecule: c1ccc2cc3n[se]nc3cc2c1
className: active
//
molecule: CCCCCCCCCCCCCCCCP(=O)(O)OCC(N)C(=O)O (configuration not stated)
className: inactive

Which result was noted for this molecule in the test: "CCCCCNC(=O)c1c(O)[nH]c(=S)[nH]c1=O"
active

Which result was noted for this molecule in the test: "Cc1cc[n+](C2=C(Nc3cccc(C(F)(F)F)c3)C(=O)c3ccccc3C2=O)cc1"
inactive

Which result was noted for this molecule in the test: "Br[Se]c1ccccn1"
active

Which result was noted for this molecule in the test: "Cc1ccc2nc3sc(=O)sc3nc2c1"
active

Which result was noted for this molecule in the test: "S=C1NC2(CCCCC2)NC12CCCCC2"
inactive

Which result was noted for this molecule in the test: CC1CCCN(CCc2ccccc2)CC1 (configuration not stated)
inactive

Which result was noted for this molecule in the test: "O=[N+]([O-])c1ccc(C=Cc2ccccc2)cc1.[C-]#[O+].[C-]#[O+].[C-]#[O+].[Cr]"
active

Which result was noted for this molecule in the test: "[N-]=[N+]=C1C(Cl)=C(Cl)C(Cl)=C1Cl"
active

Which result was noted for this molecule in the test: COC(=O)C1C2c3ccccc3C(c3ccccc32)C1C(=O)OC (configuration not stated)
inactive

====

# experimentNotes: NCI Yeast Anticancer Drug Screen. Data for the rad18 strain (AID 177)
# statedConditions: S. cerevisiae rad18 mutant growth inhibition; at 1.2 µM; active compounds read high
About 79,000 compounds went through this panel and 15% of them were active in at least one assay; those are over-represented in the sample as a whole.
endpoint: growth inhibition (%)
Enter your answer as a number in %; do not include the unit.

// solved cases for growth inhibition follow
molecule: C[C@@]12CCC(=O)C=C1CC[C@H]1C2=CC[C@]2(C)C1CC[C@@]2(C)O (stereo partly drawn)
growth inhibition / %: -2

molecule: BrCC[N+]12CC[N+](CCBr)(CC1)C2
growth inhibition / %: 10

molecule: CC12CCC(C1)C(C)(C)C2OC(=O)c1ccccc1N (stereo not drawn)
growth inhibition / %: 3

molecule: Cc1cc[n+](C2=C(Nc3cccc(C(F)(F)F)c3)C(=O)c3ccccc3C2=O)cc1
growth inhibition / %: 2

molecule: C/C(=N\N=C(N)N)C(CN1CCOCC1)C(c1ccccc1)c1c(O)c2ccccc2oc1=O (stereo not drawn)
growth inhibition / %: -3

OC1(c2ccccc2)CC2CCC(C1)N2CCCC(O)(c1ccccc1)c1ccccc1 (stereo not drawn) has a reported growth inhibition of 0

CC(C)CC(NC(=O)C(N)C(C)C)C(=O)NC(CCCCN)C(=O)Nc1ccc(N(CCCl)CCCl)cc1 (stereo not drawn) has a reported growth inhibition of -7

"O=c1oc2ccccc2c(O)c1C(c1ccc2c(c1)Cc1ccccc1-2)c1c(O)c2ccccc2oc1=O" has a reported growth inhibition of 21

"Oc1ccc(Cl)cc1Cc1ccccc1" has a reported growth inhibition of -71

"c1ccc(N=c2nc(N3CCOCC3)ss2)cc1" has a reported growth inhibition of 0

CC(Cc1ccccc1)N(C)Cc1nc(C2CCC([N+](=O)[O-])O2)no1 (stereo not drawn) has a reported growth inhibition of 14

"Cc1ccc2c(c1N)C(=O)c1ccccc1C2=O" has a reported growth inhibition of -4

O=C1C2CC(Cl)C(SSC3CC4C(=O)N(SC(Cl)(Cl)C(Cl)Cl)C(=O)C4CC3Cl)CC2C(=O)N1SC(Cl)(Cl)C(Cl)Cl (stereo not drawn) has a reported growth inhibition of 96

"O=Cc1ccc(C(F)(F)F)cc1.[C-]#[O+].[C-]#[O+].[C-]#[O+].[Cr]" has a reported growth inhibition of 1

"Oc1cccc2cccnc12" has a reported growth inhibition of 30

"O=C1C=C(CN(CCCl)CCCl)C(=O)C=C1CN(CCCl)CCCl" has a reported growth inhibition of 4

CC1(Cl)CC(C)(/C=C/Cl)C(Cl)CC1Cl (stereo not drawn) has a reported growth inhibition of 5

"O=C1NC(=S)NC(=O)C1=Cc1ccc([N+](=O)[O-])o1" has a reported growth inhibition of 21

"O=C1C=CC(=O)C1(Br)Br" has a reported growth inhibition of 15

"CS(=O)(=O)OCCN(CCOS(C)(=O)=O)c1ccc(C=O)cc1" has a reported growth inhibition of 85

====

# experimentNotes: NCI Yeast Anticancer Drug Screen. Data for the mlh1 rad18 strain (AID 175)
# statedConditions: S. cerevisiae mlh1 rad18 strain growth inhibition; at 50.0 µM
The panel holds about 79,000 compounds, 15% with a hit somewhere; the sample as a whole holds those more often. Activity calls are given as the source filed them. No stated cut-off is given here; in the data, active means growth inhibition above about 70%; inactive means the rest.
Use one of these outcomes when replying: active, inactive

The following molecules have reported results that may help.
molecule: COc1ccc(C2N(Cc3ccc(N(CCCl)CCCl)cc3C)CCCN2Cc2ccc(N(CCCl)CCCl)cc2C)cc1
className: active

molecule: CN(C)C(=[Se])[Se]C(=[Se])N(C)C
className: active

molecule: c1ccc2c3ccn4cc5c(cc4c-3nc2c1)CCCC5
className: active

molecule: c1cc[c]([Sn]([c]2ccccc2)([c]2ccccc2)[CH]2CCCCC2)cc1
className: active

molecule: Cn1cc(NC(=O)c2cc(NC(=O)CN=C(N)N)cn2C)cc1C(=O)NCCC(=N)N
className: active

Which result was noted for this molecule in the test: NCC(O)c1cccc(O)c1 (stereo not drawn)
inactive

Which result was noted for this molecule in the test: "O=C(N/N=C/c1cc(Cl)cc(Cl)c1[O-])c1ccccc1O.O=C(N/N=C/c1cc(Cl)cc(Cl)c1[O-])c1ccccc1O.[Mn+2]"
inactive

Which result was noted for this molecule in the test: CCn1c(O)c(C(=O)NC(C)c2ccc([N+](=O)[O-])cc2)c(=O)n(CC)c1=S (stereo not drawn)
active

====

Attribute: growth inhibition
# experimentNotes: NCI Yeast Anticancer Drug Screen. Data for the wt1 strain (AID 149);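 also: 0% = growth of vehicle-treated wt1 cultures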
# statedConditions: S. cerevisiae wt1 strain (SPY 50644) growth inhibition; at 3.7 µM; active compounds read high
The panel holds about 79,000 compounds, 15% with a hit somewhere; the sample as a whole holds those more often.
Enter your answer as a number in %; do not include the unit.

// solved cases for growth inhibition follow
givenSmiles: CNC(=O)ON(C(C)=O)C(=O)NC
obsValue: -52

givenSmiles: CCCCCCCCCC[Se]C#N
obsValue: 2

givenSmiles: CCCCCNC(=O)c1c(O)[nH]c(=S)[nH]c1=O
obsValue: 9

givenSmiles: CC1=C2C(=C[C@@](C)(CO)[C@@H]2O)C(=O)[C@](C)(O)C12CC2
obsValue: -1

"CC[PH+](CC)CC.CC[PH+](CC)CC.[Au]" has a reported growth inhibition of 30

"Cc1c2ccccc2cc2ccccc12" has a reported growth inhibition of 1

"C=CC[N+]12CN3CN(CN(C3)C1)C2" has a reported growth inhibition of -28

====

# experimentNotes: NCI Yeast Anticancer Drug Screen. Data for the cln2 rad14 strain (AID 165);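 also: 0% = growth equal to vehicle treated cultures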
# statedConditions: S. cerevisiae cln2 rad14 strain, at 50.0 µM (retest, dose inferred, filed as 5.0)
This is part of a sample that, as a whole, favours compounds with a hit. Of some 79,000 tested, about 15% had one in any assay. Active and inactive are the calls of the source. No stated cut-off is given here; in the data, active means growth inhibition above about 70%; inactive means the rest.
Use one of these outcomes when replying: yes for active, no for inactive

The following molecules have reported results that may help.
molecule: CC(Br)CN(CC(C)Br)c1ccc2c(c1)Cc1ccccc1-2 (configuration not stated)
className: yes
--
molecule: CN(C)CC1CC2C3CC=C4CC(O)CCC4(C)C3CCC2(C)C1=O (configuration not stated)
className: no
--
molecule: CCCCN(C)CC(C(C)=O)C(c1ccccc1)c1c(O)c2ccccc2oc1=O (configuration not stated)
className: no
--
molecule: ClC1=NSSC1(Cl)Cl
className: yes
--
molecule: CC(Br)CN1CCOCC1 (configuration not stated)
className: no
--
molecule: CC(=O)[O][Hg][c]1ccccc1N
className: yes
--
molecule: COc1cc(C=Nc2cc[c]([Hg][O]C(C)=O)cc2)ccc1O
className: no
--
molecule: COC(=O)C(CCCN=C(N)N[N+](=O)[O-])NC(=O)c1ccc2c(c1O)C(=O)c1ccccc1C2=O (configuration not stated)
className: no
--
molecule: ClCCN(CCCl)c1ccc(C2N(Cc3ccc(N(CCCl)CCCl)cc3Cl)CCCN2Cc2ccc(N(CCCl)CCCl)cc2Cl)cc1
className: yes
--
molecule: O=[N+]([O-])c1cc(S(=O)(=O)F)ccc1S
className: yes

Which result was noted for this molecule in the test: "CC[N+](C)(CC)CCNC(=O)C(O)(c1ccccc1)c1ccccc1"
no

Which result was noted for this molecule in the test: COC(=O)C1=C(O)C(C(=O)OC)[C@]2(O)[C@@H](C(=O)OC)[C@H]1C[C@@H](c1ccccc1)[C@@H]2C(=O)OC (some centres not stated)
yes

Which result was noted for this molecule in the test: "CCC[CH2][Sn]1([CH2]CCC)[S]CC[N]1S(=O)(=O)c1ccc(C)cc1"
yes

Which result was noted for this molecule in the test: C=C(C)C(=O)OC1CCC2(C)C(CCC3C2CCC2(C)C(c4ccc(=O)oc4)CC4OC432)C1 (configuration not stated)
no

Which result was noted for this molecule in the test: "N#CC(C#N)=Cc1ccc([N+](=O)[O-])s1"
yes

Which result was noted for this molecule in the test: "N#CC(=C=N)N=C(F)C(C#N)=C(C#N)C#N"
yes

Which result was noted for this molecule in the test: "O=C1C=CC(=O)C1(Br)Br"
yes

Which result was noted for this molecule in the test: CCOC(=O)C1([Se]c2ccccc2)CCCC1=O (configuration not stated)
no

Which result was noted for this molecule in the test: "CC(=O)O/C(=C1\C[C@H]2[C@@H]3CC=C4C[C@@H](OC(C)=O)CC[C@]4(C)[C@H]3CC[C@]2(C)C1=O)C(F)(F)F"
no

Which result was noted for this molecule in the test: "CCOP(=O)(OCC)Oc1cc(C)c(SC#N)c(C)c1"
no

Which result was noted for this molecule in the test: "CCC(=O)C(CCN1CCC2(CCCc3ccccc32)CC1)(c1ccccc1)c1ccccc1"
yes

Which result was noted for this molecule in the test: "O=c1oc2ccccc2c(O)c1C(c1ccc2ccccc2c1)c1c(O)c2ccccc2oc1=O"
yes
